Answer each item with its documented Population Healthy Nuclei (%).
System: U2OS
TEST: Multiplex assay against U2OS
Assay type: toxicity, cell-based
SETUP CONDITIONS: human, 12 h, 10 µM, compound concentration 10 uM, replicate 2
Answers are plain numbers, in %.

- CCCn1c(=O)c2[nH]c(-c3cnn(Cc4cccc(C(F)(F)F)c4)c3)nc2n(CC)c1=O: 77
- Cc1cn(-c2cc(NC(=O)c3ccc(C)c(Nc4nccc(-c5cccnc5)n4)c3)cc(C(F)(F)F)c2)cn1: 72
- CCOc1cc(C(=O)N2CCC(N3CCN(C)CC3)CC2)ccc1Nc1ncc2c(n1)N(C1CCCC1)c1ccccc1C(=O)N2C: 50
- COc1ccc(S(=O)(=O)N(CCO)c2ccccc2CN(C)C/C=C/c2ccc(Cl)cc2)cc1.O=P(O)(O)O: 89
- COC(=N)c1nc2ccc3ncnc(Nc4ccc(OC)cc4F)c3c2s1: 77

Items follow; give Population Healthy Nuclei (%) for each.
1. O=C(Nc1ccc(-c2ccnc(Nc3ccc(N4CCOCC4)cc3)n2)cc1)[C@@H]1CCCN1
2. S=C(NCCCc1c[nH]cn1)NCCCN(Cc1ccc(Cl)c(Cl)c1)c1ccc(Br)cn1
3. CNC(=O)c1ccc(Nc2nc(OC3CCCC3)c3c(-c4ccc5nc(C)oc5c4)c[nH]c3n2)c(OC)c1

# output
77
2
72
